Test system: NCI-H23 lung
ASSAY DETAILS: NCI tumour cell line growth inhibition, 48 h

{"MOLECULE": "Cc1ccc2nc(-c3ccc(N)c4ccccc34)[nH]c2c1", "TGI": "23.9 µM"}
{"MOLECULE": "CC(=O)OC1CCC2C(=CCC3C2(C)C(=O)CC2(C)C(C4(C)OC(C(C)C)=CC4=O)C(O)CC32C)C1(C)C (configuration not stated)", "TGI": "> 100 µM"}
{"MOLECULE": "COC(=O)NC(Cc1ccccc1)NC(C)=O (configuration not stated)", "TGI": "> 100 µM"}
{"MOLECULE": "NCCCN1CCN(CCCNc2nc3ccccc3c3[nH]c4ccccc4c23)CC1", "TGI": "1.44 µM"}
{"MOLECULE": "CC(C)C(=O)[O-].CC(C)C(=O)[O-].N.N.N.N.[Co+3].[O-][Cl+3]([O-])([O-])[O-]", "TGI": "> 100 µM"}
{"MOLECULE": "Cc1ccc(C2=C(c3ccc(C)cc3)C(c3ccc(C)cc3)=C(c3ccc(C)cc3)C2=O)cc1", "TGI": "> 100 µM"}
{"MOLECULE": "CCCCCCCCCCCCCCCCCC(=O)Nc1ccn(C2CCC(COP(=O)(O)O)O2)c(=O)n1 (configuration not stated)", "TGI": "> 100 µM"}

* * *

Tested on: SK-MEL-2 melanoma
ASSAY DETAILS: NCI tumour cell line growth inhibition, 48 h; in the data active = GI50 below about 0.43 µM; inactive = the rest
Outcomes: active, inactive

{"COMPOUND": "NS(=O)(=O)c1ccc(-n2ncc3c(Nc4ccccc4)ncnc32)cc1", "TARGET SYSTEM": "SK-MEL-2 melanoma", "GROUP": "inactive"}
{"COMPOUND": "COC(=O)[C@H](C)NC(=O)[C@@H](OC)[C@@H]1Cc2cc3cc(OC4CC(OC5CC(O)C(O)C(C)O5)C(O)C(C)O4)c(C)c(O)c3c(O)c2C(=O)[C@H]1OC1CC(OC2CC(OC3CC(C)(O)C(O)C(C)O3)C(O)C(C)O2)C(O)C(C)O1 (some centres undefined)", "TARGET SYSTEM": "SK-MEL-2 melanoma", "GROUP": "active"}
{"COMPOUND": "O=C(COc1cccc(/C=C2\\Oc3ccc4ccccc4c3C2=O)c1)c1ccc(Cl)cc1", "TARGET SYSTEM": "SK-MEL-2 melanoma", "GROUP": "inactive"}
{"COMPOUND": "Nc1c(C(=O)N/N=C/c2ccc(-c3cc(Cl)c(Cl)cc3Cl)o2)cnn1-c1ccnc2c(C(F)(F)F)cccc12", "TARGET SYSTEM": "SK-MEL-2 melanoma", "GROUP": "inactive"}

* * *

System: MALME-3M melanoma
ASSAY DETAILS: NCI tumour cell line growth inhibition, 48 h
# Lookup of reported TGI keyed by entry
PARAMETER: TGI (µM)

{"SMILES RECORD": "Cn1c(=O)c(C(=O)NC(=O)NCCCCCOC(=O)CCCCCCCCCCC(=O)OCCCCCNC(=O)NC(=O)c2cn(Cc3ccccc3)c(=O)n(C)c2=O)cn(Cc2ccccc2)c1=O", "PARAMETER": "TGI", "INEQUALITY OPERATOR": ">", "MEAS VALUE": 100}
{"SMILES RECORD": "Cc1ccc2nc(-c3ccc(N)c4ccccc34)[nH]c2c1", "PARAMETER": "TGI", "INEQUALITY OPERATOR": "=", "MEAS VALUE": 27.3}
{"SMILES RECORD": "COc1ccc2c(c1)c1nn(CCN3CCCCC3)c3ccc4c(=O)n(CCN(C)C)c(=O)n2c4c13", "PARAMETER": "TGI", "INEQUALITY OPERATOR": "=", "MEAS VALUE": 0.351}
{"SMILES RECORD": "C=Cc1nc(C#N)c(N)o1", "PARAMETER": "TGI", "INEQUALITY OPERATOR": ">", "MEAS VALUE": 100}

* * *

Test system: HCT-116 colon
ASSAY DETAILS: NCI tumour cell line growth inhibition, 48 h

{"MOLECULE": "CCC1(NC(=O)c2cc(F)c(F)c(F)c2F)C(=O)NC(=O)N(C(C)C)C1=O (centres undefined)", "TARGET SYSTEM": "HCT-116 colon", "GI50": "22.5 µM"}
{"MOLECULE": "O=S(=O)(NC1=NCCN1C(=S)SN1CCn2c1nsc2=S)c1ccccc1Cl", "TARGET SYSTEM": "HCT-116 colon", "GI50": "12.2 µM"}
{"MOLECULE": "C[C@@H](COCCC(=O)N1CCN(c2ncc(C(F)(F)F)cn2)CC1)Nc1cn[nH]c(=O)c1C(F)(F)F", "TARGET SYSTEM": "HCT-116 colon", "GI50": "40.3 µM"}
{"MOLECULE": "COc1cccc(N=N/C(=N\\NC(=O)c2cc(Br)ccc2O)c2ccc(N(CCC#N)CCC#N)cc2OC)c1", "TARGET SYSTEM": "HCT-116 colon", "GI50": "46.4 µg/mL"}

* * *

Listing of recorded TGI by entry.
System: SF-268 CNS
ASSAY DETAILS: NCI tumour cell line growth inhibition, 48 h

{"COMPOUND": "NC(=O)c1ccccc1NC(=O)c1ccccc1Cl", "TGI": "> 100 µM"}
{"COMPOUND": "O=C1C2=C(SCCS2)C(=O)c2c(Sc3ccc(Cl)cc3)c(Sc3ccc(Cl)cc3)c(Sc3ccc(Cl)cc3)c(Sc3ccc(Cl)cc3)c21", "TGI": "> 100 µM"}
{"COMPOUND": "CCOC(=O)c1ccc(N2C(=O)Cc3ccccc3C2=O)cc1", "TGI": "> 100 µM"}
{"COMPOUND": "c1csc(-c2ccsc2-c2ccsc2)c1", "TGI": "> 100 µM"}
{"COMPOUND": "O=C(N/N=C(/COc1ccccc1Cl)N=Cc1ccncc1)c1ccncc1", "TGI": "> 100 µM"}
{"COMPOUND": "O=[N+]([O-])c1ccc([N+]2=NC(c3ccccc3)=NN(c3ccccc3)C2)cc1", "TGI": "> 100 µM"}
{"COMPOUND": "COc1cccc(N=N/C(=N\\NC(=O)c2cc(Br)ccc2O)c2ccc(N(CCC#N)CCC#N)cc2OC)c1", "TGI": "122 µg/mL"}
{"COMPOUND": "COc1cc2c(cc1OC)[C@@](C)(C(O)C(O)C(C)(C)O)NCC2 (some centres not stated)", "TGI": "> 100 µM"}
{"COMPOUND": "COc1cccc(-c2nccc3c(OCc4ccccc4)c(OC)c(OC)cc23)c1", "TGI": "> 100 µM"}
{"COMPOUND": "Cc1ccc2nc(-c3ccc(N)c4ccccc34)[nH]c2c1", "TGI": "> 31.6 µM"}
{"COMPOUND": "CCOC(=O)C(C)(C)Oc1ccc2c(-c3ccc(Cl)cc3)c(-c3ccc(Cl)cc3)c(=O)oc2c1", "TGI": "> 100 µM"}
{"COMPOUND": "Nc1ccc2ccc(-c3ccc[nH]3)nc2n1", "TGI": "> 100 µM"}

* * *

System: SNB-19 CNS
ASSAY DETAILS: NCI tumour cell line growth inhibition, 48 h
// values below are reported TGI

{"COMPOUND": "Clc1ccc(CNc2nccc(-c3cnn4ncccc34)n2)cc1", "TGI": "> 25 µM"}
{"COMPOUND": "CN(C)CC1CCC/C(=C\\c2ccc(OC(=O)/C=C/c3ccc(Cl)c(Cl)c3)cc2)C1=O (stereo not drawn)", "TGI": "18.6 µM"}
{"COMPOUND": "O=C(Nc1nc2ccc([N+](=O)[O-])cc2s1)C(=O)C(C(=O)c1ccncc1)C1OC(=O)c2ccccc21 (stereo not drawn)", "TGI": "> 100 µM"}

* * *

# key: entry, value: TGI
Tested on: OVCAR-3 ovarian
ASSAY DETAILS: NCI tumour cell line growth inhibition, 48 h

{"COMPOUND": "COP(=O)(O)C(N)Cc1c[nH]c2ccccc12 (centres undefined)", "TGI": "> 100 µM"}
{"COMPOUND": "CCOC(=O)CCC(NC(=O)Cc1ccc(Oc2nc3ccccc3nc2-c2ccccc2)cc1)C(=O)OCC (centres undefined)", "TGI": "> 100 µM"}
{"COMPOUND": "Cn1cnc2c(F)c(Nc3ccc(Br)cc3F)c(C(=O)NOCCO)cc21", "TGI": "> 100 µM"}
{"COMPOUND": "Cc1cc(O)cc(O)c1C(=O)O[C@]1(C)C(=O)C=C2C=C(/C=C/C(=O)O)OC=C2C1=O", "TGI": "> 100 µM"}
{"COMPOUND": "CN(C)CCNC(=O)c1ccc(Cl)c2cc3ccccc3nc12", "TGI": "6.88 µM"}
{"COMPOUND": "COc1cccc(-c2nccc3c(OCc4ccccc4)c(OC)c(OC)cc23)c1", "TGI": "> 100 µM"}
{"COMPOUND": "CC(=O)Oc1cc(OC(C)=O)c2c(C)cc(=O)oc2c1", "TGI": "> 100 µM"}
{"COMPOUND": "CC(=O)OC(C)c1cc2c(s1)C(=O)c1c(C(C)OC(C)=O)csc1C2=O (centres undefined)", "TGI": "0.724 µM"}
{"COMPOUND": "CCOc1nccc2c1nc(-c1nonc1N)n2CC", "TGI": "> 25 µM"}
{"COMPOUND": "O=C(C(Cl)=C(N1CCCCC1)N1CCCCC1)C(Cl)Cl", "TGI": "> 100 µM"}
{"COMPOUND": "Cc1ccccc1C(=O)Oc1ccc(OCc2ccccc2)cc1", "TGI": "> 100 µM"}
{"COMPOUND": "COc1ccc2c(CCNC(=O)/C=C/c3ccccc3)c(C(C)=O)[nH]c2c1[N+](=O)[O-]", "TGI": "> 100 µM"}
{"COMPOUND": "O=S(=O)(NC1=NCCN1C(=S)SN1CCn2c1nsc2=S)c1ccccc1Cl", "TGI": "17.7 µM"}
{"COMPOUND": "CC1(C(=O)O)CCOc2ccccc21 (centres undefined)", "TGI": "> 100 µM"}
{"COMPOUND": "Cc1ccc(S(=O)(=O)n2ccc(-c3ccc4ccn(S(=O)(=O)c5ccc(C)cc5)c4c3)c2)cc1", "TGI": "> 100 µM"}
{"COMPOUND": "N#CC[N+]1(Cc2ccccn2)CCCC1", "TGI": "> 100 µM"}
{"COMPOUND": "O=[N+]([O-])c1ccc(O)c(/C=N/c2nc(-c3ccccc3)cs2)c1", "TGI": "> 100 µM"}
{"COMPOUND": "O=C(NC1C2CC3CC(C2)CC1C3)/C(Cl)=C1/Sc2ccccc2NC1=O (centres undefined)", "TGI": "> 100 µM"}
{"COMPOUND": "CCCN(CCC)C1CCc2c(ccc3cc[nH]c23)C1 (centres undefined)", "TGI": "> 100 µM"}
